Reported EC50 values for the following compounds.
MEASUREMENT TARGET: Potassium voltage-gated channel subfamily KQT member 2 (Mus musculus, UniProt Q9Z351)
Sequence (Q9Z351 whole entry): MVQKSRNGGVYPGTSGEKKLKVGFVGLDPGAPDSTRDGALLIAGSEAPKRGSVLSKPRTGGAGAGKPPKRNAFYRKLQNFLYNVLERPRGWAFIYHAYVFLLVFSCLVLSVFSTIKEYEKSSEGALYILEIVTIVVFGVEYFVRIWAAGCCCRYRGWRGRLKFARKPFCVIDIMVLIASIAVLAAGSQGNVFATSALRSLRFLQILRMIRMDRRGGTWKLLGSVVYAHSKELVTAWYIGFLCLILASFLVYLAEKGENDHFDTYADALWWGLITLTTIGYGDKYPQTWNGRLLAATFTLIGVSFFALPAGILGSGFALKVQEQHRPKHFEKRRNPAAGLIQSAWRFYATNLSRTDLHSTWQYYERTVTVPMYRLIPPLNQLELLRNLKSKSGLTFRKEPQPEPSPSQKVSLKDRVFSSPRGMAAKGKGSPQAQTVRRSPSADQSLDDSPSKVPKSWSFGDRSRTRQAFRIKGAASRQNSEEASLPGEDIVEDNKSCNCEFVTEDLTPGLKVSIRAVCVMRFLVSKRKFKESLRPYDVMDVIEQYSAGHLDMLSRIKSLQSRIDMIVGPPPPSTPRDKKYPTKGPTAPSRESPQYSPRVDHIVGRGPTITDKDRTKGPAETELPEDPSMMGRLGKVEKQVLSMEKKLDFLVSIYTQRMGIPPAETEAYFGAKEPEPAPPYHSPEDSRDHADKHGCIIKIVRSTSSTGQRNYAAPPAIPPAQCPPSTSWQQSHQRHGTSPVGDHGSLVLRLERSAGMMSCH
MEASUREMENT NOTES: Induction of mouse KCNQ2 expressed in HEK293 cells at -40 mV holding potential by whole-cell patch clamp assay
RECORDED ENDPOINT: EC50 (nM)

molecule=C[C@H](NC(=O)/C=C/c1ccccc1F)c1cccc(Oc2cccnc2)c1 recorded_endpoint=EC50 value_relation_sign== measured_result=2.4
molecule=C[C@H](NC(=O)/C=C/c1cc(F)ccc1F)c1cccc(Oc2ccncc2)c1 recorded_endpoint=EC50 value_relation_sign== measured_result=0.9
molecule=C[C@@H](NC(=O)/C=C/c1cc(F)ccc1F)c1cccc(Oc2ccncc2)c1 recorded_endpoint=EC50 value_relation_sign=> measured_result=10000
molecule=C[C@@H](NC(=O)/C=C/c1ccccc1F)c1cccc(Oc2cccnc2)c1 recorded_endpoint=EC50 value_relation_sign=> measured_result=10000

---

Reported Ratio values follow for various compounds
MEASUREMENT TARGET: Potassium voltage-gated channel subfamily KQT member 2 (Mus musculus) (UniProt Q9Z351)
Sequence (Q9Z351 whole entry): as above
MEASUREMENT NOTES: Induction of mouse KCNQ2 expressed in HEK293 cells at -40 mV holding potential by whole-cell patch clamp assay relative to (+/-)-N-(1-(benzo[d][1,3]dioxol-5-yl)ethyl)-3-(2-chlorophenyl)acrylamide
Format: cell-based
RECORDED ENDPOINT: Ratio

molecule=C[C@H](NC(=O)/C=C/c1cc(F)ccc1F)c1cccc(Oc2ccncc2)c1 measured_result=2.9
molecule=C[C@H](NC(=O)/C=C/c1ccccc1F)c1cccc(-c2ccc(F)nc2)c1 measured_result=0.85
molecule=C[C@H](NC(=O)/C=C/c1ccccc1F)c1cccc(Oc2cccnc2)c1 measured_result=2.2
molecule=C[C@H](NC(=O)/C=C/c1ccccc1Cl)c1ccc2c(c1)OCO2 measured_result=1.1
molecule=C[C@H](NC(=O)/C=C/c1ccccc1F)c1ccc2c(c1)N(CC1CC1)CCO2 measured_result=1.8
molecule=C[C@H](NC(=O)/C=C/c1ccccc1)c1cccc(N2CCOCC2)c1 measured_result=1.4
molecule=CCOC(=O)Nc1ccc(NCc2ccc(F)cc2)cc1N measured_result=1.6

---

Each entry below carries its reported concentration at 1 h.
MEASUREMENT NOTES: Drug uptake in Sprague-Dawley rat brain at 1 mg/kg, iv measured after 1 hr
Assay type: ADME, organism-based
Set-up: dose 1 mg/kg, route intravenous
CONDITION PARAMETERS: read-out: Drug uptake
RECORDED ENDPOINT: concentration at 1 h

molecule=C[C@H](NC(=O)/C=C/c1cc(F)ccc1F)c1cccc(Oc2ccncc2)c1 measured_result="42 nM"
molecule=C[C@H](NC(=O)/C=C/c1ccccc1F)c1cccc(Oc2cccnc2)c1 measured_result="560 nM"

---

MEASUREMENT NOTES: Drug uptake in Sprague-Dawley rat brain at 1 mg/kg, iv measured after 15 mins
Type: ADME, organism-based
Parameters: dose 1 mg/kg, route intravenous
CONDITION PARAMETERS: read-out: Drug uptake
RECORDED ENDPOINT: concentration at 0.25 h (nM)

molecule=C[C@H](NC(=O)/C=C/c1ccccc1F)c1cccc(Oc2cccnc2)c1 recorded_endpoint="concentration at 0.25 h" measured_result=2000
molecule=C[C@H](NC(=O)/C=C/c1cc(F)ccc1F)c1cccc(Oc2ccncc2)c1 recorded_endpoint="concentration at 0.25 h" measured_result=160
